Target: PPAR γ-RXRα heterodimer (Homo sapiens, UniProt P37231)
Construct: expressed in transfected cells; host or cells: CHO-K1 (PPAR γ:RXRα:4ERPP/CHO-K1)
Sequence (P37231 29-505 limits assumed): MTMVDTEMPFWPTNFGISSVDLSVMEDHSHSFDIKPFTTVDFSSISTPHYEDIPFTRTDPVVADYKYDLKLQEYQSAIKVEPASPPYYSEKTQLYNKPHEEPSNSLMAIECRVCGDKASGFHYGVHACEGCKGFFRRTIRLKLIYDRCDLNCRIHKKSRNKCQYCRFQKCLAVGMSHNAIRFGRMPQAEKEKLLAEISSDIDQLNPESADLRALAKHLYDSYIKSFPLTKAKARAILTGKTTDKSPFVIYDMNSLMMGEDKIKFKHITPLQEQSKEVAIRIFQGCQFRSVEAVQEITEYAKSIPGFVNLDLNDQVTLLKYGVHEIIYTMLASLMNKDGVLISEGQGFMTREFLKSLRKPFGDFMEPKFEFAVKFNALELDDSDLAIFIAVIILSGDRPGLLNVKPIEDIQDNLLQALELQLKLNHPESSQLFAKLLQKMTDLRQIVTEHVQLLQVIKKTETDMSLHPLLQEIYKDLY
Sequence (P19793 1-462 partner): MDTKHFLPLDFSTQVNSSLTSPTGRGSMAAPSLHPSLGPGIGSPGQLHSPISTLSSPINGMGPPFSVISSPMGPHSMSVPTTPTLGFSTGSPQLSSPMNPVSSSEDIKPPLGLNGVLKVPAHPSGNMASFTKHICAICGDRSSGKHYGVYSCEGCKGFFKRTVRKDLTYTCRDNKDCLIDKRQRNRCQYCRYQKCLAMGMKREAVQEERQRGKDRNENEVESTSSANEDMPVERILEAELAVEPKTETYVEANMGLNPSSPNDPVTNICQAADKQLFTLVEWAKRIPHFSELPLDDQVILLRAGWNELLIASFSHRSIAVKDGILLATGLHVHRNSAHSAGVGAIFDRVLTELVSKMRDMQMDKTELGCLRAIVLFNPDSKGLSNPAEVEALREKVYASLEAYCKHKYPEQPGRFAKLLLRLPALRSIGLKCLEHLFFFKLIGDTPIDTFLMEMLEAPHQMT
Experiment: PPAR γ-RXRα heterodimer ligand activity (luciferase reporter in PPAR γ:RXRα:4ERPP/CHO-K1 cells)
Assay type: cell-based
Settings: maximum luciferase induction relative to 5-{4-[2-(5-methyl-2-phenyl-1,3-oxazol-4-yl)ethoxy]benzyl}-1,3-thiazolidin-2,4-dione (PPARγ full agonist) as 100%
attribute measured: Vmax (%)

1) COc1ccc(C(=O)c2ccc(OCc3nc(-c4ccccc4)oc3C)cc2)c(OCC(=O)O)c1 [Example 1]	57
2) COc1ccc(C(=O)c2ccc(OCCc3nc(-c4ccccc4)oc3C)nc2)c(O[C@H](C)C(=O)O)c1 [Example 55]	44
3) COc1ccc(C(=O)c2ccc(OCc3nc(-c4ccccc4)oc3C)nc2)c(OC(C)C(=O)O)c1 (stereo not shown) [Example 21]	60
4) COc1ccc(C(=O)c2ccc(OCc3nc(-c4ccccc4)oc3C)cc2)c(OC(C)(C)C(=O)O)c1 [Example 14]	61

* * *

attribute measured: melting point

1) COc1ccc(C(=O)c2ccc(OCc3nc(-c4ccccc4)oc3C)cc2)c(OC2(C(=O)O)CCC2)c1	199 to 201 °C
2) COc1ccc(O[C@H](C)C(=O)O)c(C(=O)c2ccc(OCc3nc(-c4ccccc4)oc3C)cc2)c1	119 to 120 °C
3) COc1ccc(C(=O)c2ccc(OCc3nc(-c4ccccc4)oc3C)cc2)c(OCCC(=O)O)c1	142 to 143 °C
